Each item that follows carries a reported TM Shift LIMK1 (K).
# system.under.test: LIMK1KD (Homo sapiens, UniProt P53667)
# Construct: His6 (N, cleaved yes); made in house; host or cells: baculovirus; Sf9 for virus, TriEx insect cells for expression
# Sequence (P53667 330-637): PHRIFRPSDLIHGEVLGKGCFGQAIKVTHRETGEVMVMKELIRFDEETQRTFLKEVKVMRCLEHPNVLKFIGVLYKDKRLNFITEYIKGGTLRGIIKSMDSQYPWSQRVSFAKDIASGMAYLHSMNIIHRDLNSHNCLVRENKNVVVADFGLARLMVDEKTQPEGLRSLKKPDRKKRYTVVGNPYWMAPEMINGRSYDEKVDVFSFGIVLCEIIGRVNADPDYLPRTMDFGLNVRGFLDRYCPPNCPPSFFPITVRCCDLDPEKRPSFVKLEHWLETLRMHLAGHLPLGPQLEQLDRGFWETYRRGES
# protocol: Differential (dynamic) scanning fluorimetry (DSF) assay, LIMK1KD
# Type: binding
# condition.summary: 2 µM LIMK1KD, compound 10 µM, single shot
Answers without a unit are incomplete; give the number and then its unit.

Consider the following illustrative entries.
{"molecule": "N#C/C(=C\\c1ccc(O)c(O)c1)C(=O)NCc1ccccc1 [AG-490 (Tyrphostin B42), Tyrphostin B42]", "TM Shift LIMK1 (K)": "0.7 K"}
{"molecule": "COc1ccc(COc2cc3oc(=O)c4cc(C(C)O)ccc4c3cc2OC)cc1 (centres unmarked) [Palomid 529 (P529)]", "TM Shift LIMK1 (K)": "0.0 K"}
{"molecule": "Cc1cnc(NC(=O)Nc2cc(Br)c(C)cc2OC[C@@H]2CNCCO2)cn1 [LY2603618]", "TM Shift LIMK1 (K)": "0.1 K"}
{"molecule": "NC(=O)Nc1sc(-c2ccc(F)cc2)cc1C(N)=O [TPCA-1]", "TM Shift LIMK1 (K)": "2.8 K"}
{"molecule": "Nc1nc(N)c2nc(-c3cccc(O)c3)cnc2n1 [TG100713]", "TM Shift LIMK1 (K)": "1.4 K"}

Readout TM Shift LIMK1 (K) for CCN1CCN(c2ccc(Nc3cc(N(C)C(=O)Nc4c(Cl)c(OC)cc(OC)c4Cl)ncn3)cc2)CC1 [NVP-BGJ398] , test system LIMK1KD (Homo sapiens, UniProt P53667), was 0.0 K

Summary line: COc1ccc(CNC(=O)Nc2ncc([N+](=O)[O-])s2)cc1 [AR-A014418] , LIMK1KD (Homo sapiens, UniProt P53667), reported TM Shift LIMK1 (K) = 1.4 K

The reported LIMK1KD (Homo sapiens, UniProt P53667) TM Shift LIMK1 (K) of Fc1cc(-c2cccc3ncc(-c4cnn(C5CCNCC5)c4)nc23)cc(F)c1CN1CCOCC1 [NVP-BSK805 2HCl] is 1.5 K

---

# system.under.test: LIMK2KD (Homo sapiens, UniProt P53671)
# Construct: The cDNA coding for LIMK2 residues 330 to 632 was PCR amplified; His6 (N, cleaved yes); made in house; host or cells: baculovirus; Sf9 for virus, TriEx insect cells for expression
# Sequence (P53671 330-632): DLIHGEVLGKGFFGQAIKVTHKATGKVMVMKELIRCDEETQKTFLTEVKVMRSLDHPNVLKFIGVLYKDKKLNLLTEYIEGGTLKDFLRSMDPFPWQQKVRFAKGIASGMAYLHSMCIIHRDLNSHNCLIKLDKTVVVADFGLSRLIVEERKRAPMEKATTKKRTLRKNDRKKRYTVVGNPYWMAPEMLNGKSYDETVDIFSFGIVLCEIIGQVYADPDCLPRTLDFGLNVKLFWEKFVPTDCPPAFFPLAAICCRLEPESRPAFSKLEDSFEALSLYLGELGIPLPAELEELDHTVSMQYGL
# protocol: Differential (dynamic) scanning fluorimetry (DSF) assay, LIMK2KD
# Assay type: binding
# condition.summary: LIMK2KD, compound 10 µM, single shot; read-out: TM Shift LIMK2 (K)
Just so you know, the groups by ΔTm at 10 µM go like this: low = under 1 °C, moderate = from 1 °C up to 2 °C, high = 2 °C and over

{"molecule": "CO[C@H]1C[C@@H]2CC[C@@H](C)[C@@](O)(O2)C(=O)C(=O)N2CCCC[C@H]2C(=O)O[C@H]([C@H](C)C[C@@H]2CC[C@@H](OCCO)[C@H](OC)C2)CC(=O)[C@H](C)/C=C(\\C)[C@@H](O)[C@@H](OC)C(=O)[C@H](C)C[C@H](C)/C=C/C=C/C=C/1C [Everolimus (RAD001), Everolimus]", "system.under.test": "LIMK2KD (Homo sapiens, UniProt P53671)", "assigned.category": "low"}
{"molecule": "CNC(=O)CN1CCC(Oc2cc3c(Nc4cccc(Cl)c4F)ncnc3cc2OC)CC1 [AZD8931 (Sapitinib), Sapitinib]", "system.under.test": "LIMK2KD (Homo sapiens, UniProt P53671)", "assigned.category": "low"}
{"molecule": "Nc1nc(Nc2ccc(S(N)(=O)=O)cc2)nn1C(=O)c1c(F)cccc1F", "system.under.test": "LIMK2KD (Homo sapiens, UniProt P53671)", "assigned.category": "high"}
{"molecule": "O=C(/C=C/c1ccc(O)c(O)c1)c1ccc(O)cc1O", "system.under.test": "LIMK2KD (Homo sapiens, UniProt P53671)", "assigned.category": "moderate"}

Query :: Bin? "O=c1ncn2nc(Sc3ccc(F)cc3F)ccc2c1-c1c(Cl)cccc1Cl"
Result :: moderate

Query :: Textbook exercise: identify the category of the molecule given here, "CNC(=O)c1cccc(-c2ccc3c(N4CCOC[C@@H]4C)nc(N4CCOC[C@@H]4C)nc3n2)c1" , according to its measured value.
Result :: low

Query :: Entry "C[C@@H](Oc1cc(-n2cnc3ccc(CN4CCN(C)CC4)cc32)sc1C(N)=O)c1ccccc1C(F)(F)F" belongs to which category?
Result :: low

Query :: Which band does "CC(C)(C)c1cc(NC(=O)Nc2ccc(-c3cn4c(n3)sc3cc(OCCN5CCOCC5)ccc34)cc2)no1" fall in?
Result :: moderate

Query :: // bin(item) where item = "Cc1ccc2nc(NCCN)c3ncc(C)n3c2c1"
Result :: high

Query :: Exam item: assign CCOc1cc2ncc(C#N)c(Nc3ccc(F)c(Cl)c3)c2cc1NC(=O)/C=C/CN(C)C [Pelitinib (EKB-569), Pelitinib] to the correct category.
Result :: moderate

---

# system.under.test: LIMK2KD (Homo sapiens)
# Construct: The cDNA coding for LIMK2 residues 330 to 632 was PCR amplified; His6 (N, cleaved yes); made in house; host or cells: baculovirus; Sf9 for virus, TriEx insect cells for expression
# protocol: Differential (dynamic) scanning fluorimetry (DSF) assay, LIMK2KD
# Assay type: binding
# condition.summary: LIMK2KD, compound 10 µM, single shot
Classes are defined on TM Shift LIMK2 (K) with ranges label 0 (below 0.7 K), label 1 (0.7 K to below 1 K), label 2 (1 K or more)

Solved entries:
{"compound": "Cc1ccc(S(=O)(=O)/C=C/C#N)cc1 [BAY 11-7082]", "assigned.category": "label 0"}
{"compound": "CS(=O)(=O)O.Cn1cc(C2=C(c3cn(CCCSC(=N)N)c4ccccc34)C(=O)NC2=O)c2ccccc21 [Ro 31-8220 Mesylate]", "assigned.category": "label 2"}
{"compound": "COc1cc2c(Nc3ccc(NC(=O)c4ccccc4)cc3)ncnc2cc1OCCCN1CCOCC1 [ZM 447439]", "assigned.category": "label 1"}
{"compound": "COc1ccc2c(c1)c(C1=C(c3c[nH]c4ccccc34)C(=O)NC1=O)cn2CCCN(C)C [Go 6983]", "assigned.category": "label 2"}
{"compound": "CNC(=O)Nc1ccc(-c2nc(N3CC4CCC(C3)O4)c3cnn(C4CCC5(CC4)OCCO5)c3n2)cc1 [WYE-125132 (WYE-132)]", "assigned.category": "label 1"}

Query :: Quick check: band for c1cncc(CN2CCC(n3ncc4c(N5CCOCC5)nc(-c5ccc6[nH]ccc6c5)nc43)CC2)c1 [WAY-600]
Result :: label 0

Query :: Dear colleague, I would appreciate it if you could identify the bin for CCn1c(-c2nonc2N)nc2cnc(Oc3cccc(NC(=O)c4ccc(OCCN5CCOCC5)cc4)c3)cc21 [GSK269962] and reply at your convenience.
Result :: label 0

Query :: Form field 'band' for O=c1cc(N2CCOCC2)oc2c(-c3cccc4c3sc3ccccc34)cccc12 [NU7441 (KU-57788)]
Result :: label 0

Query :: Where would CN1CCC(CNc2ccc3ncc(-c4cccc(OC(F)(F)F)c4)n3n2)CC1 [SGI-1776 free base] land among the classes by reported TM Shift LIMK2 (K)?
Result :: label 2

Query :: Which class does O=C1NC(=O)C(c2ccccc2[N+](=O)[O-])=C1Nc1ccc(O)c(Cl)c1 [SB415286] fall in?
Result :: label 1

Query :: Note: place this compound into its band. Item: COc1ncc(-c2ccc3nccc(-c4ccnnc4)c3c2)cc1NS(=O)(=O)c1ccc(F)cc1F [GSK2126458 (GSK458)]
Result :: label 1

Query :: Band assignment needed for Cc1ccccc1CN1C(=O)C2=C(CCN(Cc3ccccc3)C2)N2CCN=C12 [TIC10] please.
Result :: label 0

Query :: Exam item: assign Nc1ncnc2c1c(-c1cccc(OCc3ccccc3)c1)cn2C1CC(CN2CCCC2)C1 (centres unmarked) [NVP-ADW742] to the correct category.
Result :: label 0

---

# system.under.test: LIMK1KD (Homo sapiens)
# Construct: His6 (N, cleaved yes); made in house; host or cells: baculovirus; Sf9 for virus, TriEx insect cells for expression
# protocol: Differential (dynamic) scanning fluorimetry (DSF) assay, LIMK1KD
# Assay type: binding
# condition.summary: 2 µM LIMK1KD, compound 10 µM, single shot; read-out: TM Shift LIMK1 (K)
Where a name gives a salt, the structure may show the parent alone.
value.type: ΔTm at 10 µM (°C)
Report the figure in °C without appending any unit label.

As a guide, the following entries are already answered.
{"compound": "C[C@@H](Oc1cc(-c2cnn(C3CCNCC3)c2)cnc1N)c1c(Cl)ccc(F)c1Cl", "ΔTm at 10 µM / °C": 3.9}
{"compound": "C=CCc1ccc(O)c(-c2ccc(O)c(CC=C)c2)c1", "ΔTm at 10 µM / °C": 0.9}
{"compound": "NC(=O)c1cnc(N[C@@H]2CCCC[C@@H]2N)nc1Nc1cccc(-n2nccn2)c1 [PRT062607 (P505-15, BIIB057) HCl]", "ΔTm at 10 µM / °C": -0.6}

Here is the next item to consider.
LIMK1KD (Homo sapiens) ΔTm at 10 µM of "CCCCOc1c(C(=O)c2c(F)cc(C)cc2F)c[nH]c2nncc1-2" is 0.7
